Measured viability, T/C by item
- System: 282377-053-R-J1-PDC complex spheroid viability;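 further: spheroids exposed to compounds for seven days; 100% = DMSO vehicle control viability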
- measurementProtocol: Anticancer human tumor 282377-053-R-J1-PDC patient-derived colon adenocarcinoma cell line growth inhibition [POLQ]
- conditionDescription: second compound 10 µM; first compound 0.0316 µM; active compounds read low
# value in %; strip the unit string

Use the examples below as a reference point.
{"columns": ["compound", "studyTarget", "unitOfMeasure", "viability, T/C"],
 "data": [
  ["CC1COCCN1c1cc(-c2ccnn2C)c2ccnc(-c3ccn[nH]3)c2n1 (configuration not stated) + COC1C(OC(N)=O)C(O)C(Oc2ccc3c(O)c(NC(=O)c4ccc(O)c(CC=C(C)C)c4)c(=O)oc3c2C)OC1(C)C", "282377-053-R-J1-PDC complex spheroid viability", "%", 121],
  ["COc1cc2cc(C(=O)CCC(=O)O)sc2cc1OC + Cc1cccc(N(C)C(=O)C2C(O)CCN2c2nc(C)cc(C(F)(F)F)c2C#N)c1", "282377-053-R-J1-PDC complex spheroid viability", "%", 107],
  ["COc1cccc2c1C(=O)c1c(O)c3c(c(O)c1C2=O)CC(O)(C(=O)CO)CC3OC1CC(N)C(O)C(C)O1 (configuration not stated) + COC1C(OC(N)=O)C(O)C(Oc2ccc3c(O)c(NC(=O)c4ccc(O)c(CC=C(C)C)c4)c(=O)oc3c2C)OC1(C)C", "282377-053-R-J1-PDC complex spheroid viability", "%", 84.4],
  ["CNCc1ccc(-c2[nH]c3cc(F)cc4c3c2CCNC4=O)cc1 + COC1C(OC(N)=O)C(O)C(Oc2ccc3c(O)c(NC(=O)c4ccc(O)c(CC=C(C)C)c4)c(=O)oc3c2C)OC1(C)C", "282377-053-R-J1-PDC complex spheroid viability", "%", 107],
  ["O=C(Nc1ccc(O)c(NS(=O)(=O)c2ccc(F)cc2)c1)c1ccc(-c2ccccc2)cc1 + Cc1cccc(N(C)C(=O)C2C(O)CCN2c2nc(C)cc(C(F)(F)F)c2C#N)c1", "282377-053-R-J1-PDC complex spheroid viability", "%", 106],
  ["CC1COCCN1c1cc(C2(S(C)(=N)=O)CC2)nc(-c2ccnc3[nH]ccc23)n1 (configuration not stated) + Nc1ccc(C#CCN(C(=O)Cc2ncc(C(F)(F)F)cc2C(F)(F)F)c2ccc(F)cc2)nn1", "282377-053-R-J1-PDC complex spheroid viability", "%", 96.5]
]}

Note viability, T/C for the compound shown: COc1cc(C2c3cc4c(cc3C(OC3OC5COC(C)OC5C(O)C3O)C3COC(=O)C23)OCO4)cc(OC)c1O (configuration not stated) + Nc1ccc(C#CCN(C(=O)Cc2ncc(C(F)(F)F)cc2C(F)(F)F)c2ccc(F)cc2)nn1
107
